molecular target: recombinant guanylate cyclase reporter cell line (Rattus norvegicus, UniProt P19686+P20595); construct: expressed in transfected cells; assay: Effect on a recombinant guanylate cyclase reporter cell line (B-2); format: cell-based; conditions: MEC = minimum effective concentration, in some cases mean values for individual determinations
Counter-ions that a name gives are not always drawn.
EXPERIMENTAL_READOUT: MEC (µM)

Some compounds with recorded MEC:
In [3]: df
Out[3]:
                                   compound  experimental_readout  meas_value
0  Cc1nc2c(OCc3c(F)cccc3F)cccn2c1-c1nc2c(c(C(N)=O)n1)C(C)(C)C(=O)N2 [Example 50, hydrochloride]                   MEC         0.3
1  Cc1nc2c(OCc3c(F)ccc(F)c3F)cccn2c1-c1nc2c(c(C(=O)N3CCNCC3)n1)C(C)(C)C(=O)N2 [Example 64, trifluoroacetate]                   MEC          10
2  Cc1nc2c(OCc3c(F)cccc3F)cccn2c1-c1nc(NCC(C)(C)O)c2c(n1)NC(=O)C2(C)C                   MEC        0.65
3  Cc1nc2c(OCc3c(F)cccc3F)cccn2c1-c1nc(NCC(N)C(F)(F)F)c2c(n1)NC(=O)C2(C)C (racemic)                   MEC           3
4  Cc1nc2c(OCc3c(F)cccc3F)cccn2c1-c1nc(NCC(N)C(F)(F)C(F)F)c2c(n1)NC(=O)C2(C)C (racemic)                   MEC           3

A = Cc1nc2c(OCc3c(F)cccc3F)cccn2c1-c1nc2c(c(N3CCC[C@H]3CO)n1)C(C)(C)C(=O)N2
B = Cc1nc2c(OCc3c(F)cccc3F)cccn2c1-c1nc(I)c2c(n1)NC(=O)C2(C)C(F)(F)F (racemic)
## Input Please let me know which one, A or B , has a lower measured MEC value. // output: label of the selected item
## Output A
(A: 0.3 µM, B: 2 µM)

----------
Molecular target: recombinant guanylate cyclase reporter cell line (Rattus norvegicus, UniProt P19686+P20595)
Construct: expressed in transfected cells
Sequence (P19686 1-690): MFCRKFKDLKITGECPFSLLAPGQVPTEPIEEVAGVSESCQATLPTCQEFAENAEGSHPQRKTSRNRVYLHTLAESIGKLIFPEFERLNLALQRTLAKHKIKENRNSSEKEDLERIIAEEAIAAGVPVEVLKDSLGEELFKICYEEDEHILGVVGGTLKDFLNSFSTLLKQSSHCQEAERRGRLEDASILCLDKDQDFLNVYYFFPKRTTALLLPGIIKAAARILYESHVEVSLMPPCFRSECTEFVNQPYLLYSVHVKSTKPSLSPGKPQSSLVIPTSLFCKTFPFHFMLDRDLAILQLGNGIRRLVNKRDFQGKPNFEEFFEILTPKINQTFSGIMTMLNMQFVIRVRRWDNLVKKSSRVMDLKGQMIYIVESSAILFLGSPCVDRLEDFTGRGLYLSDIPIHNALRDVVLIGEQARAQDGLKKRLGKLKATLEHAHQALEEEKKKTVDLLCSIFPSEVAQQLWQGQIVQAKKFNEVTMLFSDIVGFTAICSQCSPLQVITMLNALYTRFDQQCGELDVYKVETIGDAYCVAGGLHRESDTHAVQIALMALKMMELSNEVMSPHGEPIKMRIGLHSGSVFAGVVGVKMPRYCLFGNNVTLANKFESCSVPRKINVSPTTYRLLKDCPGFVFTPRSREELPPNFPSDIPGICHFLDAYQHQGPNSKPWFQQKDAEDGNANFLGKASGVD
Sequence (P20595 1-619): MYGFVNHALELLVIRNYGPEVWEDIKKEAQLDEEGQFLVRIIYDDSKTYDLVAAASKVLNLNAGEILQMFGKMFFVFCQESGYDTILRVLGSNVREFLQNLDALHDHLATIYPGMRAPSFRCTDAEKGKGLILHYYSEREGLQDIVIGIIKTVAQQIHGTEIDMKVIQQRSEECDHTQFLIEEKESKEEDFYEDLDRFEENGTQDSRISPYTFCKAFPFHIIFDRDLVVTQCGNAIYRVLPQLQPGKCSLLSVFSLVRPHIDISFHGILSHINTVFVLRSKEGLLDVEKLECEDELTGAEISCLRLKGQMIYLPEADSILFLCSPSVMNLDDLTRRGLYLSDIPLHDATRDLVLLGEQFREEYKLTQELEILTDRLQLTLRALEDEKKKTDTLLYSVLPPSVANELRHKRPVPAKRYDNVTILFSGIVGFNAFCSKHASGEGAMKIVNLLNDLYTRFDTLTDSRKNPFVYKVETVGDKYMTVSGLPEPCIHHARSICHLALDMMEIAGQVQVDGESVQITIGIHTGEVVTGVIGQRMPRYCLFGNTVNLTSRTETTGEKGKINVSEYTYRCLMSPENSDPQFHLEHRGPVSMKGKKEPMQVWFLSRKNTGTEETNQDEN
Experiment: Effect on a recombinant guanylate cyclase reporter cell line (B-2)
Assay type: cell-based
Details: MEC = minimum effective concentration, in some cases mean values for individual determinations
Structures can show the parent of a compound that is named as a salt.
EXPERIMENTAL_READOUT: MEC (µM)

MOLECULE	DISPLAY_UNIT	MEAS_VALUE
Cc1nc2c(OCc3c(F)cccc3F)cccn2c1-c1nc(NCC2(O)CC2)c2c(n1)NC(=O)C2(C)C	µM	0.3
Cc1nc2c(OCc3c(F)cccc3F)cccn2c1-c1nc2c(c(C(=O)NCC(C)(C)O)n1)C(C)(C)C(=O)N2	µM	0.3
Cc1nc2c(OCc3c(F)ccc(F)c3F)cccn2c1-c1nc2c(c(C(=O)N3CC(N)C(F)(F)C3)n1)C(C)(C)C(=O)N2 (racemic) [Example 61, trifluoroacetate]	µM	3
Cc1nc2c(OCc3c(F)ccc(F)c3F)cccn2c1-c1nc2c(c(C(=O)N3CCC(CO)C3)n1)C(C)(C)C(=O)N2 (racemic)	µM	3

a = Cc1nc2c(OCc3c(F)cccc3F)cccn2c1-c1nc(NCC(N)c2ccc(F)c(F)c2)c2c(n1)NC(=O)C2(C)C (single isomer, unassigned; ent-4)
b = Cc1nc2c(OCc3c(F)cccc3F)cccn2c1-c1nc(NCC2(N)CC2)c2c(n1)NC(=O)C2(C)C
## Input Of a and b , which carries the smaller reported MEC figure? Your answer should be the label attached to the chosen record.
## Output b
(b: 0.1 µM, a: 3 µM)
